Assay: In vivo rat pharmacokinetic studies
Settings: liver, 40 mg/kg; rat, PO 40 mpk, 8 h; read-out: Liver
Test Readout: concentration at 8 h (ng/g)
Express it in ng/g; write the number only.

The recorded concentration at 8 h for `Cn1nc(C(=O)NC2CCN(CCN3CCCC3)CC2)c2ccc(N3CCCCCC3)nc21` is 1500

---

Experiment: Liver microsome stability, human
Format: in vitro ADME
Settings: after 60 min
# strict inequality: human liver microsome (HLM, % parent remaining) < 60 % parent remaining yields t, everything else yields f

Example cases with answers are listed next.
> print(dat)
                                   compound  answer.label
1  CC1CCC(C)N1CCOCc1nn(C)c2nc(N3CCCCCC3)ccc12 (stereo not drawn) [compound 1540]             t
2  Cn1nc(CCCN2CCCCC2CO)c2ccc(N3CCCCCCC3)nc21 (stereo not drawn) [compound 1456]             t
3  CCC(CC)Oc1ccc2c(C(=O)NC3CCNCC3)n[nH]c2n1 [compound 726]             f
4  Cn1nc(C(=O)NC2CCN(CC(F)F)CC2)c2ccc(N3CCCCCC3)nc21 [compound 1110]             t
5  Cn1nc(CCCN2CCCC2)c2ccc(N3CCCCCCC3)nc21 [compound 1171]             t

**Q:** hey, is human liver microsome (HLM, % parent remaining) for Cn1nc(C(=O)NC2CCN(CCN3CCCC3)CC2)c2ccc(N3CCCCCC3)nc21 [EBP1597] lower than 60 % parent remaining or not?
**A:** t

**Q:** Quick check: does Cn1nc(C(=O)NC2CCN(CCN3CCCC3)CC2)c2ccc(N3CCCCCC3)nc21 [compound 1597] have human liver microsome (HLM, % parent remaining) under 60 % parent remaining?
**A:** t

**Q:** Please state whether human liver microsome (HLM, % parent remaining) is below 60 % parent remaining for Cn1nc(C(=O)NC2CCNCC2)c2ccc(N3CCCCCC3)nc21.O=C(O)C(F)(F)F.O=C(O)C(F)(F)F [compound 697]
**A:** f

**Q:** Does this compound meet the criterion human liver microsome (HLM, % parent remaining) < 60 % parent remaining? Cn1nc(C(=O)NC2CCN(CCN3CCCCC3)CC2)c2ccc(N3CCCCCC3)nc21 [EBP1047]
**A:** t

---

Test system: HCV genotype 1b
Assay: HCV 1b replicon luciferase assay
Type: cell-based
Conditions: Hepatitis C virus, Huh-7, 48 h, Table 1; Huh7 HCV 1b replicon, luciferase reporter, 48 hours; read-out: 1b EC50
Items are presented alongside their recorded EC50.
A complete answer gives the number followed by the unit.

Below, each entry is followed by its recorded EC50 result.
> print(dat)
                                   compound  test.readout  value.measured
1  Cn1nc(NC(=O)c2ccncc2Cl)c2ccc(N3CCCCCC3)nc21 [compound 833]          EC50          2.9 µM
2  Cn1nc(C(=O)NC2CCCN(S(C)(=O)=O)C2)c2ccc(N3CCCCCC3)nc21 (stereo not shown) [compound 700]          EC50          3.8 µM
3  Cn1nc(C(=O)NC2CCN(CC#N)CC2)c2ccc(NC3CCCCCCC3)nc21 [compound 1479]          EC50         0.92 µM

Continue with the compound presented below.
The compound listed as CCCN1CCC(NC(=O)c2nn(C)c3nc(N4CCCCCCC4)ccc23)CC1 [compound 1235] has a reported EC50 of 3.4 µM
